System: MS2 coat protein
Assay: apparent KD of MS2 coat protein; higher = weaker reporter binding
Settings: Eterna round: R107; input ligand: tryptophan 2.4 mM
ENDPOINT: apparent KD of MS2 coat protein

[[record]]
residue_string = "ACACAUGAGGAUCACCCAUGUGCGCUGGAAGGAGCGCAGAAUCAUGCAGGUAGGUCGCCAGUGCCCUUCGAUAAAGGGAAAAGAG [Erbienes]"
endpoint = "apparent KD of MS2 coat protein"
experimental_result = "69.1 nM"

[[record]]
residue_string = "GUUAUAUUAAUUGAUACCAGCGAGAAAACAUGAGGAUCACCCAUGUUCGCCCAUGUUAAGCGCCCUUGGCAGCAAUUUUAUUAGC [AstrosExyTheB#2]"
endpoint = "apparent KD of MS2 coat protein"
experimental_result = "37.5 nM"

[[record]]
residue_string = "ACAUGAAGAACAGCGGUGGGCGCGCUCGAUACCAGUAUUUUAACCUACCCUUGGCAGCGACAUGAGGAUCACCCAUGUGAGAUGA [XTheo A #7]"
endpoint = "apparent KD of MS2 coat protein"
experimental_result = "16.6 nM"

[[record]]
residue_string = "AAAAGAGGUGGAAGGAGCGGGAGACAUGAGGAUCACCCAUGUGAAGUUACGAAAGGUUCAGCCCAGGUAGGUCGCCAUGUCGAAA [eefemullin]"
endpoint = "apparent KD of MS2 coat protein"
experimental_result = "33.7 nM"

[[record]]
residue_string = "CUCUGAGUCCGCAAGGACUCAGAGGCGGAUACCAGCGAGGUCCAUCGCCCUUGGCAGCCGAACAUGAGGAUCACCCAUGUCGGUA [#1 Same State - Theophylline A Attempt #27 (HarryS)]"
endpoint = "apparent KD of MS2 coat protein"
experimental_result = "10.9 nM"

[[record]]
residue_string = "GUCAGAACAUAUCAUGUUCUGGCACUGGAAGGAGCGAGCGAGAGCUCAGGUAGGUCGCCAGAACAUGAGGAUCACCCAUGUAAUA [(A)''-(M)'-(A)'(Arg1)-(Arg2)-(M1)-(M2)_Design11]"
endpoint = "apparent KD of MS2 coat protein"
experimental_result = "49 nM"


====

Test system: MS2 coat protein
Experiment: apparent KD of MS2 coat protein; designed switch direction (-1 OFF switch, 1 ON switch): 1; higher = weaker reporter binding
Conditions: input ligand: none
The following sequences are shown together with reported apparent KD of MS2 coat protein values.
ENDPOINT: apparent KD of MS2 coat protein

[[record]]
residue_string = "UUACUCAUGUAAGGAUAUGCAGCCGUUUCGGCUGCAGAAGGUACUAUAAUACAUGAGGAUCACCCAUGUCUCUAUUAUUUGGUG [salish99_SSNG1_r04_923] (Eterna round: R96, puzzle: Same State NG 1)"
experimental_target = "MS2 coat protein"
endpoint = "apparent KD of MS2 coat protein"
experimental_result = "84.4 nM"

[[record]]
residue_string = "UGUUGUUAAUUAGGAUAUGGGCACAUGAGGAUCACCCAUGUAUUUUCGAUGCUAUGUGGAGACGUCUAGAAGGGAUGGCUAACA [SameState NG2 #88] (Eterna round: R96, puzzle: Same State NG 2)"
experimental_target = "MS2 coat protein"
endpoint = "apparent KD of MS2 coat protein"
experimental_result = "158 nM"

[[record]]
residue_string = "GCGAGCGUACUUGCAACAUGAGGAUCACCCAUGUUAACUGGACAGGAUAUGGUACCGUUUCGGUACCAGAAGGGUUCCUCAUUG [JL SSNG3 3.63] (Eterna round: R96, puzzle: Same State NG 3)"
experimental_target = "MS2 coat protein"
endpoint = "apparent KD of MS2 coat protein"
experimental_result = "437 nM"

[[record]]
residue_string = "AUAAGACACAUGAGGAUCACCCAUGUGGCCGUAGUCGGCUCACAGGAUAUCAAGCUACUAGUGCUUGAGAAGGGUGAGACAAGC [Raar Mod] (Eterna round: R96, puzzle: Same State NG 3)"
experimental_target = "MS2 coat protein"
endpoint = "apparent KD of MS2 coat protein"
experimental_result = "323 nM"

[[record]]
residue_string = "UGAAUAGUCACAGGAUAUCAUGCGAAAAUUGCGUGAGAAGGGUGGAUGUUGUGCUCAAAGUUCUACAUGAGGAUCACCCAUGUU [SameState NG1 #43] (Eterna round: R96, puzzle: Same State NG 1)"
experimental_target = "MS2 coat protein"
endpoint = "apparent KD of MS2 coat protein"
experimental_result = "63.3 nM"

[[record]]
residue_string = "GUGGUCAGACAUGAGGAUCACCCAUGUGGAAUAAAUAAGGGUUAGGAUAUGGAAUAUAGGAUAUACCAGAAGGGAUGGUUGGUG (Eterna round: R96, puzzle: Same State NG 3)"
experimental_target = "MS2 coat protein"
endpoint = "apparent KD of MS2 coat protein"
experimental_result = "111 nM"

[[record]]
residue_string = "UAGGAACAUGAGGAUCACCCAUGUACCUCAUAUGGAGAAACACAGGAUAUGCUCAGCGAAAGAGAGCAGAAGGGUGAAGAGAGG [Default title] (Eterna round: R96, puzzle: Same State NG 3)"
experimental_target = "MS2 coat protein"
endpoint = "apparent KD of MS2 coat protein"
experimental_result = "31.6 nM"

[[record]]
residue_string = "CCGAUGGUAUACUAGGAUAUGGGCGCCCUUACAUGAGGAUCACCCAUGUUUACACAAAUCCGCGGCCAGAAGGAGUUCAUGGGAG [Orgere] (Eterna round: R96, puzzle: Same State 2)"
experimental_target = "MS2 coat protein"
endpoint = "apparent KD of MS2 coat protein"
experimental_result = "112 nM"

[[record]]
residue_string = "GCUGCAAGGGCAGGAUAUGGGUUCAGAGCAGAAGUGCGCUUUGAUACAUGAGGAUCACCCAUGUCCCAGAAGGGCCCAAGCGGC [Veribe] (Eterna round: R96, puzzle: Same State NG 2)"
experimental_target = "MS2 coat protein"
endpoint = "apparent KD of MS2 coat protein"
experimental_result = "159 nM"


====

Test system: MS2 coat protein
Test: apparent KD of MS2 coat protein; higher = weaker reporter binding
Conditions: Eterna round: R107; input ligand: tryptophan 2.4 mM
ENDPOINT: apparent KD of MS2 coat protein (nM)

[[record]]
residue_string = "ACAUGAGGAUCACCCAUGUGAAGGCACGAUACCAGCUGAUCCCGUGGCCCUUGGCAGCGUCCGGUUUGGUCCGGCGGAUGGGACG [vvamullin]"
endpoint = "apparent KD of MS2 coat protein"
measure_unit = "nM"
experimental_result = 23

[[record]]
residue_string = "ACAUGAGGAUCACCCAUGUAUGACUAUCCUCGAGGACCGGUACGGCCGCCACUCGAACGAGUGGCUCGCGAGUGCGCACUCGCGG [5'end-1]"
endpoint = "apparent KD of MS2 coat protein"
measure_unit = "nM"
experimental_result = 11.6

[[record]]
residue_string = "CCCAAGCCAGCUGAUACCAGUGACGUGGUCAGAAUGUGCGACAUGAGGAUCACCCAUGUACACCCUUGGCAGCAGUAGAACGGUU [theeternabot_exclusion_MS2_Theo_B_47]"
endpoint = "apparent KD of MS2 coat protein"
measure_unit = "nM"
experimental_result = 14.9

[[record]]
residue_string = "AGUACCAAUGAGGAUACCAGAGUGCGACGCCGAAACCUUGACAUGAGGAUCACCCAUGUACUCCCUUGGCAGCCUGUACUUGCCA [theeternabot_exclusion_MS2_Theo_B_17]"
endpoint = "apparent KD of MS2 coat protein"
measure_unit = "nM"
experimental_result = 34.9

[[record]]
residue_string = "GAUGAACUAUUUGAUACCAGACUACAUGAGGAUCACCCAUGUGAGUUUCCUCCUCUGCCAGUCCCUUGGCAGCAAAUAGUUUAUC [XTheo B #7]"
endpoint = "apparent KD of MS2 coat protein"
measure_unit = "nM"
experimental_result = 42.3

[[record]]
residue_string = "AAUAAUAAGGCGGCCGCCACUAAACAUGAGGAUCACCCAUGUCUCGAGCGCUUGCAUUUGGGAAGUAGGACCGGGCCAAUAAUAA [Exclusion - Tryptophan B (Freestyle 4)]"
endpoint = "apparent KD of MS2 coat protein"
measure_unit = "nM"
experimental_result = 19.4


====

The following sequences are shown together with reported apparent KD of MS2 coat protein values.
Test system: MS2 coat protein
Assay: apparent KD of MS2 coat protein; designed switch direction (-1 OFF switch, 1 ON switch): -1; higher = weaker reporter binding
Conditions: input ligand: FMN 200 uM
ENDPOINT: apparent KD of MS2 coat protein

[[record]]
residue_string = "GAAAACGCAGGAUAUUAAUACUUAUACAUGAGGAUCACCCAUGUUUAUUGGGAUUAAGAAUAAGAAGGGCGAUGAA [EX5 #1] (Eterna round: R97, puzzle: Exclusion 5)"
experimental_result = "30.8 nM"

[[record]]
residue_string = "UAAAAUCUAGGAUAUACAUGAGGAUCACCCAUGUUGCUCCCAGCUCGUGACCUCCAAUGUAGAAGGAGAACGAU [EX3 A.15] (Eterna round: R97, puzzle: Exclusion 3)"
experimental_result = "19.8 nM"

[[record]]
residue_string = "CAAAGAUAAGGAUAUUGAAGGUUCGACAUGAGGAUCACCCAUGUUAUGUUGGAAAAGGGACAAGAAGGUAUGAAAU [salish99_ex5_r4_213] (Eterna round: R97, puzzle: Exclusion 5)"
experimental_result = "41.5 nM"


All values here come from the supplement of paper PMC9170038.
